Assay: Cytotoxicity against mouse betaTC3 cells assessed as cell viability at 10 uM after 24 hrs by MTT assay relative to control
Type: cell-based, Beta-TC3
Details: read-out: Activity
Kindly supply the reported viability at 24 h, 10 µM values for the records listed here.
Respond with the bare value in %.

Supply recorded viability at 24 h, 10 µM for CCCCCCCCCCCC(=O)OC[C@@H](O)COP(=O)([O-])OCC[N+](C)(C)C [LYSOPHOSPHATIDYLCHOLINE] here.
106

Supply recorded viability at 24 h, 10 µM for CCCCCCCCCCCCCC(=O)OCC(COP(=O)([S-])OCC[N+](C)(C)C)OC (mixture of isomers) here.
112

Supply recorded viability at 24 h, 10 µM for CCCCCCCC/C=C\CCCCCCCC(=O)OC[C@@H](O)COP(=O)([O-])OCC[N+](C)(C)C here.
130
